Tested on: IGROV1 ovarian
Experiment: NCI tumour cell line growth inhibition, 48 h; in the data active = GI50 below about 0.43 µM; inactive = the rest
// one of yes (1) = active, no (0) = inactive, no free text

Look over these answered cases.
>>> class_label("CC(C)n1cc(-c2ccc3c(c2)N(C)CC3)c2c(NS(=O)(=O)c3ccn(C)n3)ccnc21")
"no (0)"
>>> class_label("Nc1nc2ccc(CNc3ccc(C(=O)NC(CC(=O)O)C(=O)O)cc3)cc2c(=O)[nH]1 (centres undefined)")
"no (0)"
>>> class_label("CCCCCCCCCCCCC(O)C1CCC(C(O)CCCCC(O)CCCCCC2CC(CC(C)=O)C(=O)O2)O1 (centres undefined)")
"no (0)"
>>> class_label("CC1(C)CC[C@]23CC[C@]4(C)[C@H](CC[C@@H]5[C@@]6(C)CCCNC(C)(C)[C@@H]6CC[C@]54C)[C@H]2[C@H]1OC3")
"no (0)"
>>> class_label("COc1ccc2nc3cc([N+](=O)[O-])ccc3c(NCCO)c2c1")
"no (0)"

Read the next record carefully.
INPUT: Assay outcome for `CCOC(=O)c1c(-c2ccccc2)n2c(=O)cc(C)c3c(O)c(O)cc1c32` : what was it?
OUTPUT: no (0)
